Listed next: entries and their corresponding Ratio Ki.
organism: Rattus norvegicus; experiment: Selectivity index, ratio of Ki for displacement of [3H]DPDPE from DOR in Wistar rat brain membranes to Ki for displacement of [3H]DAMGO from MOR in Wistar rat brain membranes; assay type: cell membranes
Give the figure only, with no unit attached.

COMPOUND_STRING | Ratio Ki
Cc1cc(O)cc(C)c1C[C@H](N)C(=O)N[C@H]1CSSC[C@@H](C(=O)NCC(=O)N[C@H](CCCNC(=N)N)C(=O)N[C@H](CCCNC(=N)N)C(=O)O)NC(=O)[C@H](Cc2ccc(Cl)cc2)NC(=O)[C@H](Cc2ccccc2)NC1=O | 705
N=C(N)NCCC[C@@H](NC(=O)[C@@H](CCCNC(=N)N)NC(=O)CNC(=O)[C@@H]1CSSC[C@H](NC(=O)[C@@H](N)Cc2ccc(O)cc2)C(=O)N[C@@H](Cc2ccccc2)C(=O)N[C@@H](Cc2ccccc2)C(=O)N1)C(=O)O | 221
N=C(N)NCCC[C@@H](NC(=O)[C@@H](CCCNC(=N)N)NC(=O)CNC(=O)[C@@H]1CSSC[C@H](NC(=O)[C@@H](N)Cc2ccc(O)cc2)C(=O)N[C@@H](Cc2c[nH]c3ccccc23)C(=O)N[C@@H](Cc2ccccc2)C(=O)N1)C(=O)O | 249

Proceeding to the next compound to report its Ratio Ki.
For this compound ( Cc1cc(O)cc(C)c1C[C@H](N)C(=O)N[C@H]1CSSC[C@@H](C(=O)NCC(=O)N[C@H](CCCNC(=N)N)C(=O)N[C@H](CCCNC(=N)N)C(=O)O)NC(=O)[C@H](Cc2ccc(Cl)cc2)NC(=O)[C@H](Cc2c[nH]c3ccccc23)NC1=O ), measured Ratio Ki is 361
